Assay: qHTS assay to identify small molecule agonists of the sonic hedgehog signaling (Shh) pathway - cell viability counter screen (AID 1259366); also: nearly all actives have a fitted effect of over 50% in size
Conditions: NIH/3T3 Gli1-Luc viability, CellTiter-Fluor, 24 h; series mostly up to 92.4 µM
Results filed as inconclusive are left out. Active and inactive are the calls of the source. Calls follow the shape of the dose curve; as a rule, active = well fitted cell-killing curve with a large enough effect in the repeat runs; inconclusive = weak or mixed curves, or effect the other way; inactive = flat fitted curve, though single readings scatter.
Classes used: TRUE for active, FALSE for inactive

> print(dat)
                               given.smiles  answer.label
1  COc1cc(-c2nc(NC(=O)c3cc4cc(C)cc(C)c4n3CC(=O)O)sc2CCC2CCCCC2)c(OC)cc1Cl         FALSE
2  O=C(Nc1cccc(C(F)(F)F)c1)c1cc(Br)cc(Br)c1O         FALSE
3                              CCC(N)(CO)CO         FALSE
4  CS(=O)(=O)CCNCc1ccc(-c2ccc3ncnc(Nc4ccc(OCc5cccc(F)c5)c(Cl)c4)c3c2)o1         FALSE
5                      O=C(O)c1c(Cl)cccc1Cl         FALSE
6                        Nc1ccc(N)c2ccccc12          TRUE
7              N#CC1(c2ccc(F)cc2)CCC(=O)CC1         FALSE

====

Reported max activation values for the following molecules.
Biological target: Nuclear receptor subfamily 1 group I member 2 (Rattus norvegicus)
Assay: Rat pregnane X receptor (rPXR) activation by small molecules, qHTS assay (AID 1346983); also: % is scaled to controls: 0 for no effect and ±100 for the full control effect; nearly all actives have a fitted effect of over 20% in size
Details: rPXR luciferase reporter cells, One-Glo luminescence, 24 h; stronger effect = higher value
Results filed as inconclusive are left out.
Measured property: max activation (%)

> print(dat)
                                    molecule  units.of.measure  value.reported
 1  Cn1cc(C(=O)[C@@H]2CCc3nc[nH]c3C2)c2ccccc21                 %           -0.66
 2                   Oc1c(Cl)cc(Cl)c2cccnc12                 %            4.53
 3  CC(C)(C)CC(C)(C)c1ccc(O)c(Cc2ccc(Cl)cc2Cl)c1                 %         -0.0398
 4          [O-][n+]1ccccc1SSc1cccc[n+]1[O-]                 %           -9.36
 5   CCc1oc2ccccc2c1C(=O)c1cc(Br)c(O)c(Br)c1                 %           -3.61
 6  Cc1c(C)c2c(c(C)c1O)CCC(C)(COc1ccc(CC3SC(=O)NC3=O)cc1)O2 (stereo not given)                 %           -5.73
 7                  Clc1ccc2nsnc2c1NC1=NCCN1                 %           -3.32
 8  CCCCC(CC)CN=C(N)NC(N)=NCCCCCCN=C(N)NC(N)=NCC(CC)CCCC (stereo not given)                 %           -27.3
 9  CC(C)=CCOc1ccc(/C=C/C(=O)c2ccc(OCC=C(C)C)cc2OCC(=O)O)cc1                 %           -3.35
10  COc1cc(/C=C/C(=O)O[C@H]2CC[C@]34C[C@]35CC[C@]3(C)[C@@H]([C@H](C)CCC=C(C)C)CC[C@@]3(C)[C@@H]5CC[C@H]4C2(C)C)ccc1O                 %           -10.7

====

Experiment: qHTS assay to identify small molecule antagonists of the androgen receptor (AR) signaling pathway using the MDA cell line in the presence of 0.5 nM R1881 - cell viability counter screen (AID 1259242); also: nearly all actives have a fitted effect of over 45% in size
Details: MDA-kb2 viability, CellTiter-Fluor protease fluorescence, 16 h; series mostly up to 92.4 µM
Results filed as inconclusive are left out. Calls of active or inactive are those of the source. The call rests on the fitted dose curve; in most records, active means well fitted cell-killing curve with a large enough effect in the repeat runs; inconclusive means weak or mixed curves, or effect the other way; inactive means flat fitted curve, though single readings scatter.
Classes used: active, inactive

> print(dat)
                                    compound  answer.label
 1  Cc1cc(O)c(C(C)(C)C)cc1Sc1cc(C(C)(C)C)c(O)cc1C        active
 2  CC(C)=CCOc1ccc(/C=C/C(=O)c2ccc(OCC=C(C)C)cc2OCC(=O)O)cc1      inactive
 3  O=C(O)c1cc(O)c2c(c1)C(=O)c1cccc(O)c1C2=O      inactive
 4  NC(=O)C1(N2CCCCC2)CCN(CCCN2c3ccccc3CCc3ccc(Cl)cc32)CC1        active
 5      O=C(Oc1ccccc1)c1ccccc1C(=O)Oc1ccccc1      inactive
 6        CC1=NC(C)OC1C (stereo unspecified)      inactive
 7               Oc1ccc(Cl)cc1Sc1cc(Cl)ccc1O        active
 8  CCCCCCCC[N+](CCCCCCCC)(CCCCCCCC)CCCCCCCC        active
 9  CC1(C)CCC(C)(C)c2cc(C(=O)Nc3ccc(C(=O)O)cc3)ccc21      inactive
10  C[C@H](CCC(=O)O)[C@H]1CC[C@H]2[C@@H]3CC[C@@H]4C[C@H](O)CC[C@]4(C)[C@H]3CC[C@]12C      inactive
11                  CC(C)(C)c1ccc(C(=O)O)cc1      inactive

====

Experiment: qHTS assay to identify small molecule agonists of H2AX - cell viability counter screen (AID 1224847); also: nearly all actives have a fitted effect of over 30% in size
Details: CHO-K1 viability, CellTiter-Glo luminescence, 3 h; series mostly up to 70.9 µM
Results filed as inconclusive are left out. The source made the active and inactive calls. Calls come from the whole dose curve.
Classes used: active, inactive

> print(dat)
                                    compound  answer.label
 1  CC(C)(C)NC(=O)[C@@H]1C[C@@H]2CCCC[C@@H]2CN1C[C@@H](O)[C@H](Cc1ccccc1)NC(=O)[C@H](CC(N)=O)NC(=O)c1ccc2ccccc2n1        active
 2                   Oc1ccc2c(c1)-c1ccccc1C2      inactive
 3  CCCCC(CC)COC(=O)c1ccccc1C(=O)O (centres undefined)      inactive
 4              N#CC1(c2ccc(F)cc2)CCC(=O)CC1      inactive
 5                CCCCCCCCCOC(=O)c1ccc(O)cc1        active
 6  CCCN(CCC)c1c([N+](=O)[O-])cc(C(F)(F)F)c(N)c1[N+](=O)[O-]        active
 7  CC(C)n1nc(-c2cc3cc(O)ccc3[nH]2)c2c(N)ncnc21      inactive
 8                  Clc1ccc2nsnc2c1NC1=NCCN1      inactive
 9               NC(=O)NS(=O)(=O)c1ccc(N)cc1      inactive
10  CCCCCCCC[N+](CCCCCCCC)(CCCCCCCC)CCCCCCCC        active
11        CC(NN)c1ccccc1 (centres undefined)      inactive
12  C/C(=C(/OCCOc1ccc(Cl)cc1)c1ccc(Cl)cc1Cl)n1ccnc1      inactive
13  Clc1ccc(C(Cn2ccnc2)OCc2ccc(Sc3ccccc3)cc2)c(Cl)c1 (centres undefined)      inactive
14  OCCN1CCN(CC/C=C2/c3ccccc3Sc3ccc(C(F)(F)F)cc32)CC1        active
15         CC1=NC(C)OC1C (centres undefined)      inactive
16                                   C1CCCC1      inactive
17      Oc1ccc2cc(SSc3ccc4cc(O)ccc4c3)ccc2c1        active
18             CCOc1ccc2nc3cc(N)ccc3c(N)c2c1      inactive
19      CN(C/C=C/C#CC(C)(C)C)Cc1cccc2ccccc12        active
20  C[C@]12CCC(=O)C=C1CC[C@@H]1[C@@H]2[C@@H](O)C[C@@]2(C)[C@H]1CC[C@]2(O)C(=O)COC(=O)CCC(=O)O      inactive
21  CCN(C(=O)c1cc(C)cc(OC[C@H](C)Nc2ccncc2)c1)C(C)C      inactive
22  CCOC(=O)O[C@H](C)OC(=O)c1ccc2c(c1)cc(C(=O)NC1CCN(C(C)C)CC1)n2Cc1cc(-c2ccc(Cl)s2)on1        active
23  COc1ccc(-c2ccc3cc(C(=O)O)ccc3c2)cc1C12CC3CC(CC(C3)C1)C2      inactive
24                 C=C(C)C(=O)OCC[N+](C)(C)C      inactive
25  Cc1onc(-c2c(Cl)cccc2Cl)c1C(=O)N[C@@H]1C(=O)N2[C@@H]1SC(C)(C)[C@@H]2C(=O)O      inactive
26  O=C(OCC1CO1)C1CCCCC1C(=O)OCC1CO1 (centres undefined)      inactive
27  CCC(C)(C)C1CCCCC1OC(C)=O (centres undefined)      inactive
28  COC(=O)C1=C(C)NC(C)=C(C(=O)OCCc2ccc(N3CCN(C(c4ccccc4)c4ccccc4)CC3)cc2)C1c1cccc([N+](=O)[O-])c1 (centres undefined)      inactive
29  NC(=O)C1(N2CCCCC2)CCN(CCCN2c3ccccc3CCc3ccc(Cl)cc32)CC1        active
30         CCCCCCCCCCCCCCCS(=O)(=O)Oc1ccccc1      inactive
31             O=[N+]([O-])c1ccccc1Nc1ccccc1      inactive
32  CCc1cc(Cc2cc(CC)cc(C(C)(C)C)c2O)c(O)c(C(C)(C)C)c1        active
33  c1cc(C(c2ccc(OCC3CO3)cc2)c2ccc(OCC3CO3)cc2)ccc1OCC1CO1 (centres undefined)      inactive
34                        [Cl][Au]([Cl])[Cl]      inactive
35  C[n+]1cc2c3c(ccc2c2ccc4cc5c(cc4c21)OCO5)OCO3        active
36                             COc1cccc(N)c1      inactive
37  COc1c(C)c2c(c(O)c1C/C=C(\C)CCC(=O)O)C(=O)OC2      inactive
38                Nc1nc2ccccc2n1Cc1ccc(F)cc1      inactive
39  O=C1C=CC(=O)N1c1ccc(Cc2ccc(N3C(=O)C=CC3=O)cc2)cc1        active
40  Cc1cc(CCN2CCN(c3nsc4ccccc34)CC2)cc2c1NC(=O)CC2(C)C        active
41  Cc1c(C)c2c(c(C)c1O)CCC(C)(COc1ccc(CC3SC(=O)NC3=O)cc1)O2 (centres undefined)      inactive
42  CC(C)(C)C(=O)OCOC(=O)C1N2C(=O)CC2S(=O)(=O)C1(C)C (centres undefined)      inactive
43  CCN1/C(=C/C=C/c2sc3ccccc3[n+]2CC)Sc2ccccc21        active
44  CCCC(=O)OC[C@@H](OC(=O)CCC)[C@@H](OC(=O)CCC)[C@H](Cn1c2nc(=O)[nH]c(=O)c-2nc2cc(C)c(C)cc21)OC(=O)CCC      inactive
